System: [^3H]dUMP-labelled DNA
Assay: Kinetic parameters on uracil substrate
Assay type: biochemical
Details: U-ds substrate; calculated from Vmax assuming Mr=25000
Can you tell me Kcat for the items I'm about to list?
Give bare numbers, in s⁻¹.

As a guide, the following entries are already answered.
Tyr147Phe: human UDG (UNGΔ84) mutant with Tyr147 replaced by Phe (protein) MGVFCLGPWGLGRKLRTPGKGPLQLLSRLCGDHLQAIPAKKAPAGQEEPGTPPSSPLSAEQLDRIQRNKAAALLRLAARNVPVGFGESWKKHLSGEFGKPYFIKLMGFVAEERKHYTVYPPPHQVFTWTQMCDIKDVKVVILGQDPFHGPNQAHGLCFSVQRPVPPPPSLENIYKELSTDIEDFVHPGHGDLSGWAKQGVLLLNAVLTVRAHQANSHKERGWEQFTDAVVSWLNQNSNGLVFLLWGSYAQKKGSAIDRKRHHVLQTAHPSPLSVYRGFFGCRHFSKTNELLQKSGKKPIDWKEL    20.42
Tyr147Ala (protein) MGVFCLGPWGLGRKLRTPGKGPLQLLSRLCGDHLQAIPAKKAPAGQEEPGTPPSSPLSAEQLDRIQRNKAAALLRLAARNVPVGFGESWKKHLSGEFGKPYFIKLMGFVAEERKHYTVYPPPHQVFTWTQMCDIKDVKVVILGQDPAHGPNQAHGLCFSVQRPVPPPPSLENIYKELSTDIEDFVHPGHGDLSGWAKQGVLLLNAVLTVRAHQANSHKERGWEQFTDAVVSWLNQNSNGLVFLLWGSYAQKKGSAIDRKRHHVLQTAHPSPLSVYRGFFGCRHFSKTNELLQKSGKKPIDWKEL    0.0167

Shift focus to the following entry.
Entry Asn204Gln: human UDG (UNGΔ84) mutant with Asn204 replaced by Gln (protein) MGVFCLGPWGLGRKLRTPGKGPLQLLSRLCGDHLQAIPAKKAPAGQEEPGTPPSSPLSAEQLDRIQRNKAAALLRLAARNVPVGFGESWKKHLSGEFGKPYFIKLMGFVAEERKHYTVYPPPHQVFTWTQMCDIKDVKVVILGQDPYHGPNQAHGLCFSVQRPVPPPPSLENIYKELSTDIEDFVHPGHGDLSGWAKQGVLLLQAVLTVRAHQANSHKERGWEQFTDAVVSWLNQNSNGLVFLLWGSYAQKKGSAIDRKRHHVLQTAHPSPLSVYRGFFGCRHFSKTNELLQKSGKKPIDWKEL , Kcat reported as 1.1
